testedSystem: FIXa (Homo sapiens)
Construct: FIXa was obtained from Haematologics; purchased Haematologics
Sequence (P00740 227-461 limits assumed): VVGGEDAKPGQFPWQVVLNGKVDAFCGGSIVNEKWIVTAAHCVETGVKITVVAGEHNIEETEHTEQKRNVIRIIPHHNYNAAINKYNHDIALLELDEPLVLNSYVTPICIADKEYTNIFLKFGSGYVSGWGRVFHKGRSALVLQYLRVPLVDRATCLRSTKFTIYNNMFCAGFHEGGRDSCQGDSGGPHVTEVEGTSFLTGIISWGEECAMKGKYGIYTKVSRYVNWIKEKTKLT
Sequence (P00740 47-191 partner limits assumed): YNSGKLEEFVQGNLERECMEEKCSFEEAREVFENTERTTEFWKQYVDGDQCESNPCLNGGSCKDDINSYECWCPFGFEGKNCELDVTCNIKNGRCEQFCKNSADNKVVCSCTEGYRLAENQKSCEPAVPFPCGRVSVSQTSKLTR
assayDetails: Score assay, FIXa (chromogenic substrate Pefachrome IXa)
Format: biochemical
Design: key: fold increase in inhibitor conc / inhibitor conc used (mM)
recordedConditions: Table 3; Score = fold increase in inhibitor concentration / concentration of inhibitor used (in mM); 37° C., pH 7.4
readout: FIXa score
Output spec: single numeric token, no unit.

Q. Look at this molecule and give its reported FIXa score. CC(C)Cc1ccc(Oc2ccc(B3OC(C)(C)C(C)(C)O3)cc2CSC(=N)N)cc1
A. 285

Q. Look at this molecule and give its reported FIXa score. N=C(N)SCc1cccc(B(O)O)c1
A. 209

Q. Look at this molecule and give its reported FIXa score. CC(=O)NNC(=N)SCc1cccc(B(O)O)c1
A. 10.1

Q. Look at this molecule and give its reported FIXa score. CC1(C)OB(c2ccc(N3CCN(c4ccccn4)CC3)c(CSC(=N)N)c2)OC1(C)C
A. 39.0

Q. Look at this molecule and give its reported FIXa score. N=C(N)SCc1cc(B(O)O)ccc1Oc1ccccc1
A. 306
